Reported TGI values follow for various compounds
Test system: HOP-62 NSCLC
Assay: NCI tumour cell line growth inhibition, 48 h
Where a SMILES comes first, the peptide text is derived from it. [ ]: non-standard residue; d: D form. The star is where a group is joined. ξ: configuration not given here. X28 = COC1=CC(=O)N(C(=O)[C@@H](O*)C(C)C)[C@H]1Cc1ccccc1; X37 = O=C(OCc1ccccc1)[C@@H]1CCC[C@H]1N*; Fmoc = O=C(OCC1c2ccccc2-c2ccccc21)*; ξW = NC(Cc1c[nH]c2ccccc12)C(=O)O; NMeL = CN[C@@H](CC(C)C)C(=O)O; ξF = NC(Cc1ccccc1)C(=O)O; Hexanoyl = CCCCCC(=O)*; Boc = CC(C)(C)OC(=O)*; ξK = NCCCCC(N)C(=O)O; ξT = CC(O)C(N)C(=O)O; OBn = c1ccc(CO*)cc1; Bn = c1ccc(C*)cc1; tBu = CC(C)(C)*
MEASURED PROPERTY: TGI

COMPOUND	VAL
CC(C)CC(NC(=O)C(Cc1ccccc1)NC(=O)C(COCc1ccccc1)NC(=O)OC(C)(C)C)C(=O)OCc1ccccc1 (stereo not drawn) (Boc-Ser(Bn)-Phe-Leu-OBn; configuration not given here)	> 100 µM
CC(OC(C)(C)C)C(NC(=O)C(CCCCNC(=O)OC(C)(C)C)NC(=O)C(Cc1c[nH]c2ccccc12)NC(=O)C(Cc1ccccc1)NC(=O)OCC1c2ccccc2-c2ccccc21)C(=O)NC(Cc1ccccc1)C(=O)N[C@@H]1CCC[C@H]1C(=O)OCc1ccccc1 (stereo not given in full) (Fmoc-[ξF][ξW][ξK](Boc)[ξT](tBu)[ξF]-X37)	> 100 µM
CCCCN(CCCC)CC(=O)c1ccc2cc(Cl)c3ccccc3c2c1	> 100 µM
CCOC(=O)c1c(OCC)[nH]c(=O)c(C(c2ccc(F)cc2)c2c(O)c(C(=O)OCC)c(OCC)[nH]c2=O)c1O	36.1 µM
CCCCCC(=O)N[C@H](C(=O)N[C@H](C(=O)N(C)[C@@H](CC(C)C)C(=O)N1CCC[C@H]1C(=O)N1CCC[C@H]1C(=O)O[C@H](C(=O)N1C(=O)C=C(OC)[C@@H]1Cc1ccccc1)C(C)C)C(C)C)C(C)C (Hexanoyl-VV[NMeL]PP-X28)	> 100 µM

====

System: UACC-257 melanoma
Assay: NCI tumour cell line growth inhibition, 48 h
Where a SMILES comes first, the peptide text is derived from it. [ ]: non-standard residue; d: D form. The star is where a group is joined. X28 = COC1=CC(=O)N(C(=O)[C@@H](O*)C(C)C)[C@H]1Cc1ccccc1; NMeL = CN[C@@H](CC(C)C)C(=O)O; Hexanoyl = CCCCCC(=O)*
Reported TGI values follow for various compounds

COMPOUND	VALUE OPERATOR	TGI, µM
COC(=O)c1nc2c(C)c(O)c(O)c([C@H](C)CCC=C(C)C)c2o1	=	78
CCCCCC(=O)N[C@H](C(=O)N[C@H](C(=O)N(C)[C@@H](CC(C)C)C(=O)N1CCC[C@H]1C(=O)N1CCC[C@H]1C(=O)O[C@H](C(=O)N1C(=O)C=C(OC)[C@@H]1Cc1ccccc1)C(C)C)C(C)C)C(C)C (Hexanoyl-VV[NMeL]PP-X28)	>	100
NC(=O)NC(=O)CI	=	13.4
Cc1cn2c(/C=C3/C(=O)Nc4ccccc43)c(-c3ccccc3)nc2s1	>	100
CC1(C)COC(c2cccc(C3=NC(C)(C)CO3)c2)=N1	>	100
CC(C)(C)c1cc(C(O)(C(F)(F)F)C(F)(F)F)c2c(c1)C(C(F)(F)F)(C(F)(F)F)OC(c1ccccc1)(C(C)(C)C)N2 (stereo not drawn)	=	19.7
CN(C)/[N+]([O-])=N/Oc1cc(Nc2ccc(C(=O)O)cc2)c([N+](=O)[O-])cc1[N+](=O)[O-]	=	35.5
COC(=O)c1c(-c2ccccc2)csc1NC(=O)c1c(-c2ccccc2)noc1C	>	100
